B1: CPEB3 Ribozyme (parent)
chain: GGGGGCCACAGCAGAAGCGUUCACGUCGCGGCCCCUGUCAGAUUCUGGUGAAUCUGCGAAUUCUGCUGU

# Variants of: B1
# measurement_notes: self-cleavage, relative activity (ratio to wild type); higher = more cleavage; co-transcriptional
# key: entry, value: self-cleavage
readout_label: self-cleavage

> print(dat)
                               sequence.code  readout.label  measured.number
 1  GGGGGCCACAGCAGAAGCGUUCACGUCGCGUCCCCUGUCAGAUUCUGGUGAAUCUGCGAAUCCUGCUGU [G31U U62C]  self-cleavage            0.226
 2  GGGGGCCACAGCAGAAGCGUUCACGUCGCGGCCCCUGUCAGAUUCUGGUGAAUCUACUAAUUCUGCUGU [G56A G58U]  self-cleavage            0.994
 3  GGGGGCCACAGCAGAAGCGCUCACGUUGCGGCCCCUGUCAGAUUCUGGUGAAUCUGCGAAUUCUGCUGU [U20C C27U]  self-cleavage            0.114
 4  GGGGGCCACAGCAGAAGCGUUCACGUCGCGGACCCUGUCAGAUUCUGGUGAAUCUGCGAAUUGUGCUGU [C32A C63G]  self-cleavage            0.344
 5  GGGGGCCACAGCAGAAGCGUUCACGUCGCGGCGCCUGUCAGAUUCUGGUGAAUCUGCGAAUUCUCCUGU [C33G G65C]  self-cleavage            0.424
 6  GGGGGCCACAGCGGAAGCGUUCACGUCGCGGCCCCUGUCAGAUUCUGGUGAAUCUGCGAAUUGUGCUGU [A13G C63G]  self-cleavage            0.504
 7  UGGGGCCACAGCAGAAGCGUUCACGUCGCGGCCCCUGUCAGAUUCUGGUGCAUCUGCGAAUUCUGCUGU [G1U A51C]  self-cleavage            0.114
 8  GGGGGCCACAGCAGAAGCGUUCCCGUCGCGGCCCCUGUCAGAUUCUGGUUAAUCUGCGAAUUCUGCUGU [A23C G50U]  self-cleavage            0.953
 9  GGGGGCCACAGCAGAAGCGUUCACGUCGCGGCCCCUGUCAGAGUCUGGUGAAUCUGCGAAUUCUCCUGU [U43G G65C]  self-cleavage            0.432
10  GGGGGCCACAGCAGAAGCGUUUACGUCGCGGCCCCUGUCAGAAUCUGGUGAAUCUGCGAAUUCUGCUGU [C22U U43A]  self-cleavage            0.217
11  GGUGGCCACAGCAGAAGCGUUCACGGCGCGGCCCCUGUCAGAUUCUGGUGAAUCUGCGAAUUCUGCUGU [G3U U26G]  self-cleavage           0.0677
12  GGGGGCCACAGCAGAAGCGUUCACGUCGCGACCCCUGUCAGAUUCUGGUGAAUCUGUGAAUUCUGCUGU [G31A C57U]  self-cleavage             0.34
13  GGGGGCCACAGGCGAAGCGUUCACGUCGCGGCCCCUGUCAGAUUCUGGUGAAUCUGCGAAUUCUGCUGU [C12G A13C]  self-cleavage             0.26
14  GGGGGCGACAGCACAAGCGUUCACGUCGCGGCCCCUGUCAGAUUCUGGUGAAUCUGCGAAUUCUGCUGU [C7G G14C]  self-cleavage           0.0631
15  GGGUGCCACAGCAGAAGCGAUCACGUCGCGGCCCCUGUCAGAUUCUGGUGAAUCUGCGAAUUCUGCUGU [G4U U20A]  self-cleavage            0.121
16  GGGGGCCACAGCAGAAGCGUUCACGUCGCGGCCGCUGUCAGAUUCUGGUGAACCUGCGAAUUCUGCUGU [C34G U53C]  self-cleavage            0.562
17  GGGGGGCACAGCAGAAGCGUUCACGUCGCGACCCCUGUCAGAUUCUGGUGAAUCUGCGAAUUCUGCUGU [C6G G31A]  self-cleavage            0.753
18  GGGGGCCACAGCAGAAGCGUUCACGUCGCGGGCCCUGUCAGAUUCUGGUGAAUCCGCGAAUUCUGCUGU [C32G U55C]  self-cleavage            0.258
19  GGGGGCAACCGCAGAAGCGUUCACGUCGCGGCCCCUGUCAGAUUCUGGUGAAUCUGCGAAUUCUGCUGU [C7A A10C]  self-cleavage             0.76
20  AGGGGCCACAGCAGAAGCGUUCACGUCGCGCCCCCUGUCAGAUUCUGGUGAAUCUGCGAAUUCUGCUGU [G1A G31C]  self-cleavage           0.0308
21  GGGGACCACAGCAGAAGCGUUCACGCCGCGGCCCCUGUCAGAUUCUGGUGAAUCUGCGAAUUCUGCUGU [G5A U26C]  self-cleavage            0.853
22  GGGGGCCACAGCAGAAGCGUUCACGUCGCGGCCCCUGUCAGAUUCUGGUGAAUCUGCUAAUACUGCUGU [G58U U62A]  self-cleavage            0.958
23  GGGGGCCACAGCAGAAGCGUUCACGUCGGGGCCCCUGUCAGAUUCUGGUGAAUCAGCGAAUUCUGCUGU [C29G U55A]  self-cleavage            0.267
24  GGGGGCCACAGCAGGAUCGUUCACGUCGCGGCCCCUGUCAGAUUCUGGUGAAUCUGCGAAUUCUGCUGU [A15G G17U]  self-cleavage            0.424
25  GGGGGCCACAGCAGAAGCGUUGACGUCGCGGCCACUGUCAGAUUCUGGUGAAUCUGCGAAUUCUGCUGU [C22G C34A]  self-cleavage            0.194
26  GGGGGCCACAGCAGAAGCGUUCACGUCGCCGCCCCUGUCCGAUUCUGGUGAAUCUGCGAAUUCUGCUGU [G30C A40C]  self-cleavage            0.197
27  GGGGGCCACAGCAGAAGCGUUCACGUCGCGGCCCCUGUCUGAUUCUGGUGAAUCUGCGGAUUCUGCUGU [A40U A59G]  self-cleavage            0.887
28  GGCGGCCACAGCAGAAGCGUUCACGUCGCGGCCCCUGUCAGAUUCUGGUGAAUCUGCGAAUUCUGCUGU [G3C]  self-cleavage            0.147
29  GGGGGCCACAGCAGAAGCGUUCACGUCGCGGCCCCAGUCAGAUUCUGGUGAAUCUGUGAAUUCUGCUGU [U36A C57U]  self-cleavage            0.233
30  GGGGGCCACAGCAGAAGCGUUCAAGUCGCGGCCCCUGACAGAUUCUGGUGAAUCUGCGAAUUCUGCUGU [C24A U38A]  self-cleavage            0.393
31  GGGGGCCACAGCAAAAGCGUUCACGUCGCGGCCCCUGUCGGAUUCUGGUGAAUCUGCGAAUUCUGCUGU [G14A A40G]  self-cleavage            0.495
32  GGGGGCCACAGCAGAAGCGUUCACGUCGCCGCCCCUGUCAGAUUUUGGUGAAUCUGCGAAUUCUGCUGU [G30C C45U]  self-cleavage            0.603
33  GGGGGCCCCAGCAGAAGCGUUCACGUCGCGGCCCCGGUCAGAUUCUGGUGAAUCUGCGAAUUCUGCUGU [A8C U36G]  self-cleavage            0.192
34  GGGGGCCACAGCAGAAGCGUUCACGUCGCGGCCCCUGUCAGAUUCUGGUGAAUCGGCGAAUUCUGCCGU [U55G U67C]  self-cleavage            0.612
